assay: Critical micelle concentration (CMC) using diphenylhexatriene (DPH) fluorescent stain; assay type: physicochemical; conditions: aqueous solution
property name: CMC

1. CCCCCCCCCOC[C@H](O[C@@H]1OC(CO)[C@@H](O[C@H]2OC(CO)[C@@H](O)C(O)C2O)C(O)C1O)[C@H](COCCCCCCCCC)O[C@@H]1OC(CO)[C@@H](O[C@H]2OC(CO)[C@@H](O)C(O)C2O)C(O)C1O (some centres unmarked) [A-BTM-C9]: ~0.021 mM

Let us move to another entry and its CMC.
*Q* What value of measured CMC is listed for CCCCCCCCCCCOC[C@@H](O[C@@H]1OC(CO)[C@@H](O[C@H]2OC(CO)[C@@H](O)C(O)C2O)C(O)C1O)[C@@H](COCCCCCCCCCCC)O[C@@H]1OC(CO)[C@@H](O[C@H]2OC(CO)[C@@H](O)C(O)C2O)C(O)C1O (some centres unmarked) [B-BTM-C11] ?
*A* ~0.008 mM

Entry source: patent US11198704B2
